B1: library; a variant is named by its letters at N, in order (parent)
chain: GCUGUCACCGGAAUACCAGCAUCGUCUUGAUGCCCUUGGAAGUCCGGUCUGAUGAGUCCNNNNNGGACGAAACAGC

- Variants of: B1
- test-protocol: FACS-Seq fitted mean relative fluorescence mCherry/BFP without ligand (log10 relative fluorescence); higher = higher reporter protein expression
- test-settings: HEK293T, ligand present: no
Quick list: FACS-Seq fitted mean (log10) per entry.

>  <mutation-label>
ACGCC

>  <result-value>
1.08

$$$$
>  <mutation-label>
GCAGA

>  <result-value>
0.899

$$$$
>  <mutation-label>
GACAG

>  <result-value>
0.769

$$$$
>  <mutation-label>
UCCUA

>  <result-value>
0.918

$$$$
>  <mutation-label>
UUUAC

>  <result-value>
0.968

$$$$
>  <mutation-label>
UUGAC

>  <result-value>
0.872

$$$$

Task item: Quick one: FACS-Seq fitted mean (log10) of GACAA ?
Reply: 0.619

Task item: What FACS-Seq fitted mean (log10) value was documented for this variant, AUGAG ?
Reply: 0.655

Task item: Value lookup for FACS-Seq fitted mean (log10); key = CUUUC
Reply: 1.07

Task item: What value of FACS-Seq fitted mean (log10) has been recorded for this entry: AGAUA
Reply: 0.671

Task item: Which FACS-Seq fitted mean (log10) reading was recorded for the variant UUCCG ?
Reply: 0.818

Task item: I am curious: what FACS-Seq fitted mean (log10) value has been reported for AUUCA ?
Reply: 0.918

Task item: # input variant: AGUAC ; wanted: its FACS-Seq fitted mean (log10)
Reply: 0.729

All figures here come from the supplement of paper PMC6757056.
